Below: a set of entries, each annotated with reported pKi.
- subject.of.test: CDK2/Cyclin E1 full length (Homo sapiens (Human), UniProt P24941)
- experimental.protocol: CDK2/Cyclin E1 full length mobility shift assay
When answering, recall that pKi equals minus log10 of the concentration in mol/L, and write that number alone.

A selection of reference data follows.
| compound | subject.of.test | pKi |
| --- | --- | --- |
| CCC(CO)CNC(=O)O[C@@H]1CC[C@H](c2cc(NC(=O)Cc3ccnc(OC)c3)n[nH]2)C1 (single isomer, unassigned) [Example 534] | CDK2/Cyclin E1 full length (Homo sapiens (Human), UniProt P24941) | 9.07 |
| Cc1ccc(C(=O)Nc2cc([C@H]3CC[C@@H](OC(=O)NC4(CC(F)(F)F)CC4)C3)[nH]n2)cn1 | CDK2/Cyclin E1 full length (Homo sapiens (Human), UniProt P24941) | 9.29 |

Input line: Give pKi for the following compound: `Cn1ccc(CC(=O)Nc2cc([C@H]3CC[C@@H](OC(=O)NC4(C)CCOCC4)C3)[nH]n2)n1`
Output line: 8.43

Input line: Give pKi for the following compound: `Cc1coc(CC(=O)Nc2cc([C@H]3CC[C@@H](OC(=O)NC(C)(C)C)C3)[nH]n2)n1`
Output line: 9.52

Input line: Give pKi for the following compound: `CC(C)NC(=O)O[C@@H]1CC[C@H](c2cc(NC(=O)Cc3ccccn3)n[nH]2)C1`
Output line: 8.72

Input line: Give pKi for the following compound: COc1cc(CC(=O)Nc2cc([C@H]3CC[C@@H](OC(=O)N4CCC4C)C3)[nH]n2)ccn1 (single isomer, unassigned) [Example 154]
Output line: 8.75

Input line: Give pKi for the following compound: `CC[C@H](C)CNC(=O)O[C@@H]1CC[C@H](c2cc(NC(=O)Cc3cnc(C)o3)n[nH]2)C1`
Output line: 8.64

====

- subject.of.test: CDK2/Cyclin E1 full length (Homo sapiens (Human))
- experimental.protocol: CDK2/Cyclin E1 full length mobility shift assay
Below: a set of entries, each annotated with reported pKi.
When answering, recall that pKi equals minus log10 of the concentration in mol/L, and write that number alone.

A selection of reference data follows.
| compound | pKi |
| --- | --- |
| CC[C@H](C)NC(=O)O[C@@H]1CC[C@H](c2cc(NC(=O)c3cnnn3C)n[nH]2)C1 [Example 4] | 10.00 |
| Cc1ncc(CC(=O)Nc2cc([C@H]3CC[C@@H](OC(=O)N4C[C@@H](C#N)[C@@H]4C)C3)[nH]n2)s1 (single isomer, unassigned) [Example 159] | 8.44 |
| CC(C)NC(=O)O[C@H]1CC[C@@H](c2cc(NC(=O)Cc3ccccn3)n[nH]2)C1 [Example 264] | 8.74 |
| COc1cnc(CC(=O)Nc2cc([C@H]3CC[C@@H](OC(=O)N4CC[C@@H]4C)C3)[nH]n2)cn1 [Example 592] | 8.64 |
| CC[C@H](C)NC(=O)O[C@@H]1CC[C@H](c2cc(NC(=O)c3cnn(C)c3)n[nH]2)C1 [Example 320] | 8.53 |
| Cc1ccc(CC(=O)Nc2cc([C@@H]3CC[C@H](OC(=O)N[C@H]4CC[C@H](O)CC4)C3)[nH]n2)nc1 [Example 549] | 9.05 |
| COC[C@H](C)NC(=O)O[C@@H]1CC[C@H](c2cc(NC(=O)Cc3cnc(OC)cn3)n[nH]2)C1 [Example 520] | 8.54 |
| CC[C@H](C)NC(=O)O[C@@H]1CC[C@H](c2cc(NC(=O)c3ccnn3CCOC)n[nH]2)C1 [Example 51] | 9.70 |
| CCCNC(=O)O[C@@H]1CC[C@H](c2cc(NC(=O)Cc3cncs3)n[nH]2)C1 [Example 179] | 9.27 |
| COCc1cc(C(=O)Nc2cc([C@H]3CC[C@@H](OC(=O)N4CC[C@@H]4C)C3)[nH]n2)n(C)n1 [Example 595] | 8.82 |

Input line: Give pKi for the following compound: COc1cc(C(=O)Nc2cc([C@H]3CC[C@@H](OC(=O)NC4(C)CCOC4)C3)[nH]n2)n(C)n1 (single isomer, unassigned) [Example 479]
Output line: 9.05

Input line: Give pKi for the following compound: CC[C@H](C)NC(=O)O[C@@H]1CC[C@H](c2cc(NC(=O)Cc3cc(OC)ccc3S(C)(=O)=O)n[nH]2)C1 [Example 50]
Output line: 9.77

Input line: Give pKi for the following compound: Cc1cnc(CC(=O)Nc2cc([C@H]3CC[C@@H](OC(=O)NC4(C)CC4)C3)[nH]n2)o1 [Example 5]
Output line: 9.40

Input line: Give pKi for the following compound: CCC1CCN1C(=O)O[C@@H]1CC[C@H](c2cc(NC(=O)Cc3ncc(C)o3)n[nH]2)C1 (single isomer, unassigned) [Example 600]
Output line: 8.67

Input line: Give pKi for the following compound: CCN(C)C(=O)O[C@@H]1CC[C@H](c2cc(NC(=O)Cc3ccc(OC)cc3)n[nH]2)C1 [Example 240]
Output line: 9.14

Input line: Give pKi for the following compound: Cc1cnc(CC(=O)Nc2cc([C@H]3CC[C@@H](OC(=O)N[C@@H](C)CF)C3)[nH]n2)o1 [Example 379]
Output line: 8.52

Input line: Give pKi for the following compound: COCc1cc(C(=O)Nc2cc([C@H]3CC[C@@H](OC(=O)N[C@@H](C)C4CC4)C3)[nH]n2)n(C)n1 [Example 104]
Output line: 9.77

Input line: Give pKi for the following compound: COc1cc(CC(=O)Nc2cc([C@@H]3CC[C@H](OC(=O)NC[C@@H]4CCCO4)C3)[nH]n2)ccn1 [Example 497]
Output line: 8.36

Input line: Give pKi for the following compound: CCCNC(=O)O[C@@H]1CC[C@H](c2cc(NC(=O)Cc3cnco3)n[nH]2)C1 [Example 167]
Output line: 8.85

Input line: Give pKi for the following compound: CCCNC(=O)O[C@H]1CC[C@@H](c2cc(NC(=O)Cc3cc(OC)ncc3O)n[nH]2)C1 [Example 193]
Output line: 9.39

Input line: Give pKi for the following compound: Cc1cc(CC(=O)Nc2cc([C@H]3CC[C@@H](OC(=O)N4CCC[C@@H]4C)C3)[nH]n2)on1 [Example 632]
Output line: 9.44

Input line: Give pKi for the following compound: CC[C@H](C)NC(=O)O[C@H]1CC[C@@H](c2cc(NC(=O)c3cnnn3C)n[nH]2)C1 [Example 31]
Output line: 9.80

====

- subject.of.test: GSK3β (H350L) (Homo sapiens (Human))
- Sequence (P49841 whole entry, stated change not applied): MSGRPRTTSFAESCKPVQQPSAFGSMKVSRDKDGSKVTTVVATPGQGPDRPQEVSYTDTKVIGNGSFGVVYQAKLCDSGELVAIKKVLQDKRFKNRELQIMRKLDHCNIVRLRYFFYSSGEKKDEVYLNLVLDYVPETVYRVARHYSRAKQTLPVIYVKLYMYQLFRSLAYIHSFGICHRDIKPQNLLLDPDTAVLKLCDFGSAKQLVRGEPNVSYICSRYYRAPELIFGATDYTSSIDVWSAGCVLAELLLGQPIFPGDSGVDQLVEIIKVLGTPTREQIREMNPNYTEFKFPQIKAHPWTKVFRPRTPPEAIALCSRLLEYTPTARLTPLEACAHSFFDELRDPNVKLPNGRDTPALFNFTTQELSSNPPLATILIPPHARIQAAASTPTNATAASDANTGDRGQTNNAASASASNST
- condition.notes: read-out: GSK3β Ki
experimental.readout: pKi
When answering, recall that pKi equals minus log10 of the concentration in mol/L, and write that number alone.

A selection of reference data follows.
| compound | pKi |
| --- | --- |
| COCCn1nccc1C(=O)Nc1cc([C@H]2CC[C@@H](OC(=O)N3CC[C@@H]3C)C2)[nH]n1 [Example 594] | 7.84 |
| Cc1cnc(CC(=O)Nc2cc([C@H]3CC[C@@H](OC(=O)NC4(C)CC4)C3)[nH]n2)o1 [Example 5] | 7.40 |
| O=C(Cc1cc(F)cc(F)c1)Nc1cc([C@@H]2CC[C@H](OC(=O)N[C@H]3CC[C@@H](O)CC3)C2)[nH]n1 [Example 27] | 8.45 |

Query compound follows.
Input line: Give pKi for the following compound: COc1ncc(CC(=O)Nc2cc([C@H]3CC[C@@H](OC(=O)NC(C)C)C3)[nH]n2)s1 [Example 281]
Output line: 7.61

====

- subject.of.test: CDK2/Cyclin E1 full length (Homo sapiens (Human))
- experimental.protocol: CDK2/Cyclin E1 full length mobility shift assay
Decide using Ki alone. Strictly below 1 nM: 1. Equal to or above 1 nM: 0.

Record excerpt, results attached:
| compound | assigned.category |
| --- | --- |
| Cc1cnc(CC(=O)Nc2cc([C@H]3CC[C@@H](OC(=O)NCCC(F)(F)F)C3)[nH]n2)s1 [Example 221] | 0 |
| COc1cc(CC(=O)Nc2cc([C@H]3CC[C@@H](OC(=O)N4C[C@@H](O)[C@@H]4C)C3)[nH]n2)ccn1 [Example 612] | 1 |
| Cc1cc(CC(=O)Nc2cc([C@H]3CC[C@@H](OC(=O)N4CCC4(C)C)C3)[nH]n2)on1 [Example 12] | 1 |
| CCCNC(=O)O[C@@H]1CC[C@H](c2cc(NC(=O)Cc3ccccc3S(C)(=N)=O)n[nH]2)C1 (single isomer, unassigned) [Example 201] | 0 |

Input line: Consider COC[C@H](C)NC(=O)O[C@@H]1CC[C@H](c2cc(NC(=O)Cc3ccc(OC)nc3)n[nH]2)C1 [Example 519] . Does its Ki lie strictly below 1 nM?
Output line: 1

Input line: Consider COc1cc(CC(=O)Nc2cc([C@H]3CC[C@@H](OC(=O)N4C[C@@](C)(O)[C@@H]4C)C3)[nH]n2)ccn1 [Example 625] . Does its Ki lie strictly below 1 nM?
Output line: 1
